Recorded values, source patent US11584747B2.

# assayed target: human DGKα (Homo sapiens (Human), UniProt P23743)
# Sequence (P23743 whole entry, looked up): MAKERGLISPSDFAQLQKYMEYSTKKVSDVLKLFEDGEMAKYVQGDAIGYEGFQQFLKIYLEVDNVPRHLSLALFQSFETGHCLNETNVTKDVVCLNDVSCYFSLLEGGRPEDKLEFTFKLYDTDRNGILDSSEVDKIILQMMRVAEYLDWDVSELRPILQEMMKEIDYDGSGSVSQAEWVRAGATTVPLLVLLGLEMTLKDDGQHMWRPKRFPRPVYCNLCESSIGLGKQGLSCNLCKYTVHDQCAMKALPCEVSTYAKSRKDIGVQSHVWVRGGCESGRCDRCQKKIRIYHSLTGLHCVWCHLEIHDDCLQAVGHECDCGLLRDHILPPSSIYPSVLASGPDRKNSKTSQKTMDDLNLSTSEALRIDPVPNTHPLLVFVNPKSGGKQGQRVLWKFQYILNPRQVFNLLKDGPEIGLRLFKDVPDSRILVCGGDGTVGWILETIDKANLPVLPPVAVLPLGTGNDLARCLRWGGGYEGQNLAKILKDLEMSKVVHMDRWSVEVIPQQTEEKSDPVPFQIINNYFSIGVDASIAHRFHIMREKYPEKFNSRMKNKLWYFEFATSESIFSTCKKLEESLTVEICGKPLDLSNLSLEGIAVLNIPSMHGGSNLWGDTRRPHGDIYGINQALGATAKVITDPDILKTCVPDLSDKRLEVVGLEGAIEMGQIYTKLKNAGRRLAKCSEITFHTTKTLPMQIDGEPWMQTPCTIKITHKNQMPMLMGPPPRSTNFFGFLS
# method notes: DGKα LIPGLO assay (extruded liposome substrate, ADP-Glo luminescence)
# Format: biochemical
# condition: liposome assay; read-out: DGK alpha LIPGLO IC50
readout type: IC50 (nM)

compound="CC[C@@H]1CN(c2nc(=O)n(C)c3ccc(C#N)nc23)[C@@H](C)CN1C(c1ccc(F)cc1)c1ccccn1 (single isomer, unassigned) [Example 87]" readout_type=IC50 meas_value=28
compound="COC[C@@H]1CN(c2nc(=O)n(C)c3ccc(C#N)nc23)[C@@H](C)CN1C(C)c1ccc(C(F)(F)F)cc1 (single isomer, unassigned) [Example 175]" readout_type=IC50 meas_value=980
compound="CCC(c1ccc(OC(F)(F)F)cc1)N1C[C@H](C)N(c2nc(=O)n(C)c3ccc(C#N)nc23)C[C@H]1CC (single isomer, unassigned) [Example 84]" readout_type=IC50 meas_value=3220

[P] CC(c1ccc(C2CC2)cc1F)N1C[C@H](C)N(c2nc(=O)n(C)c3ccc(C#N)nc23)C[C@H]1C (single isomer, unassigned) [Example 168]
[Q] CCC(c1ccc(OC(F)F)cc1)N1C[C@H](C)N(c2nc(=O)n(C)c3ccc(C#N)nc23)C[C@H]1CC (single isomer, unassigned) [Example 77]
[R] CC[C@H]1CN(C(C)c2ccc(C(F)(F)F)cc2N2CCOCC2)[C@H](CC)CN1c1nc(=O)n(C)c2ccc(C#N)nc12 (stereo partly drawn)
[S] COC[C@@H]1CN(c2nc(=O)n(C)c3ccc(C#N)nc23)[C@@H](C)CN1C(C)c1ccc(C(F)(F)F)cc1 (single isomer, unassigned) [Example 174]
[T] CCC(c1ccc2c(c1)OC(F)(F)O2)N1C[C@H](C)N(c2nc(=O)n(C)c3ccc(C#N)nc23)C[C@H]1CC (single isomer, unassigned) [Example 80]
QUERY: Task field, ranking: reported IC50, descending order. When ranking, write the labels in the order the request describes.
RESULT: R, T, S, P, Q

[a] CC[C@@H]1CN(c2nc(=O)n(C)c3ccc(C#N)nc23)[C@@H](C)CN1C(c1ccc(F)cc1)c1cccc(C(F)(F)F)n1 (single isomer, unassigned) [Example 66]
[b] C[C@@H]1CN(c2nc(=O)n(C)c3ccc(C#N)nc23)[C@@H](C)CN1Cc1ccc(F)c(F)c1
[c] CC[C@@H]1CN(c2nc(=O)n(C)c3ccc(C#N)nc23)[C@@H](C)CN1C(c1ccc(F)cc1)c1cc(C2CC2)on1 (single isomer, unassigned)
QUERY: Arrange items by their IC50 values in increasing order. When ranking, write the labels in the order the request describes.
RESULT: c, a, b
(c: 140 nM, a: 230 nM, b: 530 nM)

----------
# assayed target: human DGKζ (Homo sapiens (Human), UniProt Q13574)
# Sequence (Q13574 other isoform, or with tags, fused parts or gaps): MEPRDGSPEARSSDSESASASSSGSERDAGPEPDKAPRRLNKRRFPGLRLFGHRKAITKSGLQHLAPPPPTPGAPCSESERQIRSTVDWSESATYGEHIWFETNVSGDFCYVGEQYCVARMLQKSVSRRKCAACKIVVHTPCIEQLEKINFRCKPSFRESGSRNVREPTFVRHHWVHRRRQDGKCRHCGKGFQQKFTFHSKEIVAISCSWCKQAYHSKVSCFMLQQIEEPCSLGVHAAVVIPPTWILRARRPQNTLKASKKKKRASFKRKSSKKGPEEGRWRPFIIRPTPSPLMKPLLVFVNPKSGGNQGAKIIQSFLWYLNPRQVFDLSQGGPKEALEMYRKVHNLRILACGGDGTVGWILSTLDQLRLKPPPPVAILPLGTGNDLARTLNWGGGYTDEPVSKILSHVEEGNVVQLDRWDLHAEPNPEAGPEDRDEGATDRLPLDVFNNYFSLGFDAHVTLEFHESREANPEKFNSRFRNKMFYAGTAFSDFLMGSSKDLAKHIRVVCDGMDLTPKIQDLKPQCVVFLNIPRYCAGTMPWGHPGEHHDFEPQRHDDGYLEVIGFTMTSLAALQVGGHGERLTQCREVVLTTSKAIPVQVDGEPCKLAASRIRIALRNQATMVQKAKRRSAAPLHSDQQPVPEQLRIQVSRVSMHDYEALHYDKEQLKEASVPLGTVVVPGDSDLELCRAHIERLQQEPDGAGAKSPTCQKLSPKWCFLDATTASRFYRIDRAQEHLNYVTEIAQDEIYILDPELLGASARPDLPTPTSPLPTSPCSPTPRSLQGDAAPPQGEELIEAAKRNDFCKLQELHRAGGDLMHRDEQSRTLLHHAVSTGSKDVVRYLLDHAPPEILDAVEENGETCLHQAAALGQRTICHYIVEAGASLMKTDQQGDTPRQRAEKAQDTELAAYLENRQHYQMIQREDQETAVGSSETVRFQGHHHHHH
# method notes: DGKζ LIPGLO assay (extruded liposome substrate, ADP-Glo luminescence)
# Type: biochemical
# condition: liposome assay; read-out: DGK zeta LIPGLO IC50
readout type: IC50 (µM)

compound="CC[C@H]1CN(C(c2ccc(F)cc2)c2ccc(C(F)(F)F)cn2)[C@H](CC)CN1c1nc(=O)n(C)c2ccc(C#N)nc12 (single isomer, unassigned) [Example 2]" assayed_target="human DGKζ (Homo sapiens (Human), UniProt Q13574)" readout_type=IC50 meas_value=0.047
compound="CC[C@@H]1CN(c2nc(=O)n(C)c3ccc(C#N)nc23)[C@@H](C)CN1C(C)c1ccc(OC)cc1 (single isomer, unassigned) [Example 56]" assayed_target="human DGKζ (Homo sapiens (Human), UniProt Q13574)" readout_type=IC50 meas_value=0.011
compound="CCC(c1ccc(C2CC2)cc1)N1C[C@H](C)N(c2nc(=O)n(C)c3ccc(C#N)nc23)C[C@H]1CC (stereo partly drawn) [Example 300]" assayed_target="human DGKζ (Homo sapiens (Human), UniProt Q13574)" readout_type=IC50 meas_value=0.022
compound="CC[C@@H]1CN(c2nc(=O)n(C)c3ccc(C#N)nc23)[C@@H](C)CN1C(c1ccc(F)cc1)c1cccc(C(F)(F)F)n1 (single isomer, unassigned) [Example 66]" assayed_target="human DGKζ (Homo sapiens (Human), UniProt Q13574)" readout_type=IC50 meas_value=0.11

[A] Cc1ccc(C(c2ccc(C)cc2)N2C[C@H](C)N(c3nc(=O)n(C)c4ccc(C#N)nc34)C[C@H]2C)cc1
[B] CC[C@@H]1CN(c2nc(=O)n(C)c3ccc(C#N)nc23)[C@@H](C)CN1C(C)c1ccc(OC(F)(F)F)cc1 (single isomer, unassigned) [Example 48]
QUERY: Short answer wanted: higher IC50, A or B ? Return value: the label identifying the chosen record.
RESULT: A
(A: 0.99 µM, B: 0.048 µM)
